# Test system: Pseudomonas fluorescens FW300-N2E2
# MEASUREMENT_CONDITIONS: medium / electron acceptor: N2E2 Glucose/aerobic (2)
QUANTITY_NAME: IC50 growth inhibition

Below: 4 molecules and their reported IC50 growth inhibition.
| MOLECULE | TARGET_OR_SYSTEM | IC50 growth inhibition |
| --- | --- | --- |
| O=[Si](O)O [Sodium metasilicate] | Pseudomonas fluorescens FW300-N2E2 | < 244 µM |
| O.O.O.O.O.O.O.O=[As]([O-])([O-])O.[Na+].[Na+] [Sodium arsenate dibasic heptahydrate] | Pseudomonas fluorescens FW300-N2E2 | < 244 µM |
| O=NO [Sodium nitrite] | Pseudomonas fluorescens FW300-N2E2 | 3890 µM |
| OP(O)(O)=S [Sodium thiophosphate tribasic hydrate] | Pseudomonas fluorescens FW300-N2E2 | > 50000 µM |

Query: IC50 growth inhibition lookup needed for [Cl][Pb][Cl] [lead (II) chloride] , thanks.
Response: > 5000 µM

Query: IC50 growth inhibition lookup needed for [O-][I+3]([O-])([O-])O [Sodium periodate] , thanks.
Response: 1560 µM
